Test system: MCF7
EXPERIMENT_NOTES: Proliferation Assay (crystal violet)
Format: cell-based, human
RUN_CONDITIONS: Homo sapiens, MCF7, 96 h, MCF7 cells, 4 days incubation; read-out: Proliferation IC50 MCF7
Lab note: compare IC50 with 600 nM, writing 1.0 if less and 0.0 if equal or more.

Some entries whose results are on file:
{"MOLECULE": "CC(C)[C@H](CO)Nc1nc(Nc2ccc(S(N)(=O)=O)nc2)ncc1Br", "CLASSIFICATION": 0.0}
{"MOLECULE": "CCC(CO)Sc1nc(Nc2ccc(S(N)(=O)=O)nc2)ncc1Br (centres unmarked)", "CLASSIFICATION": 1.0}
{"MOLECULE": "CC[C@@H](CO)Nc1nc(Nc2ccc(S(N)(=O)=O)nc2)ncc1Br", "CLASSIFICATION": 0.0}

Please find the next molecule below.
Just wondering, is IC50 of CC(=O)C(C)Nc1nc(Nc2ccc(S(N)(=O)=O)nc2)ncc1Br (centres unmarked) below 600 nM?
0.0
